// data source = patent US7868204B2

Test system: HCT116 cells
Assay: MTT assay
Format: cell-based
Conditions: Homo sapiens, HCT-116, 72 h, Table 5F; HCT116 cells, 72 hours
IC50: recorded values
# unit: nM | format: bare number

Take a look at these entries with their results.
For record COc1cc(NCc2ccc(C(=O)Nc3ccccc3N)cc2)c(C(C)=O)cc1OC the listed IC50 is 800

get_value(item= Cc1cc(Cl)nc(NCc2ccc(C(=O)Nc3ccccc3N)cc2)n1 , readout=IC50) returns 900

For reference, reported IC50 for COc1ccc(-c2ccnc(NCc3ccc(C(=O)Nc4ccccc4N)cc3)n2)cn1 stands at 100

// Nc1ccccc1NC(=O)c1ccc(-c2ncc[nH]2)cc1 : IC50 value = 1000

Nc1ccccc1NC(=O)c1ccc(NCCn2cnc3ccccc3c2=O)nc1 yielded IC50 of 7000

The compound Nc1ccccc1NC(=O)c1ccc(Cn2cnc3cc(F)c(F)cc3c2=O)cc1 showed IC50 equal to 3000

// sample Cc1ccc(NCc2ccc(C(=O)Nc3ccccc3N)cc2)c(C)c1 , its IC50 was 1000

Note: attention shifts to another entry.
The recorded IC50 for entry Nc1ccccc1NC(=O)c1ccc(Cn2c(=O)c3ccccc3n(CCN3CCOCC3)c2=O)cc1 equals 1000

---

# pIC50 values compiled below
Molecular target: cloned recombinant human HDAC-1 (Homo sapiens)
Construct: made in house; host or cells: Baculovirus insect cell expression system
Sequence (Q13547 whole entry): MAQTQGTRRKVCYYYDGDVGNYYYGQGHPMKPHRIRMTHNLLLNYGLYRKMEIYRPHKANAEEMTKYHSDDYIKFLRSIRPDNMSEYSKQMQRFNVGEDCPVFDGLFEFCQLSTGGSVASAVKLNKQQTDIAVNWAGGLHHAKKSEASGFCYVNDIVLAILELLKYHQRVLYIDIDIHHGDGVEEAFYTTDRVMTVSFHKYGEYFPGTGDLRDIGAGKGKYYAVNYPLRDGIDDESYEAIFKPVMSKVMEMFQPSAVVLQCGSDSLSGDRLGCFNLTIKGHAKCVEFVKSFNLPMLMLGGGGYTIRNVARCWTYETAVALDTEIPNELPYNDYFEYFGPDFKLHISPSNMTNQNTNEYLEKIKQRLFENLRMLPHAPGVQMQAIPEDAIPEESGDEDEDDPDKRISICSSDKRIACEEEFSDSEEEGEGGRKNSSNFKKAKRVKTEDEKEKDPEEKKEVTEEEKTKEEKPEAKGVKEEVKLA
Test: Human HDAC-1 enzyme inhibition, Assay 1 ([3H]-acetylated histone substrate, scintillation counting)
Format: biochemical
Conditions: Table 5F; read-out: Human HDAC-1 IC50
Lab note: report pIC50 as minus log10 of the concentration in molar units, number only.

// known answers, use as guide
Form field pIC50, entry Nc1ccccc1NC(=O)c1ccc(CNc2ccc3oc(SCc4cccnc4)nc3c2)cc1 [Cpd 452] : 5.52

The reported value for COc1cc2ncn(Cc3ccc(C(=O)Nc4ccccc4N)cc3)c(=O)c2cc1OC [Cpd 338] in terms of pIC50 is 5.70

According to the records, this molecule CC(=O)Nc1ccc(NCc2ccc(C(=O)Nc3ccccc3N)cc2)cc1 [Cpd 401] displays pIC50 of 5.22

More entries:
Record Nc1ccccc1NC(=O)c1ccc(-c2noc(CN3CCCCC3)n2)cc1 [Cpd 354] . Reported pIC50: 4.82

Given item Nc1ccccc1NC(=O)c1ccc(CNc2ccc(F)cc2)cc1 [Cpd 415] , the value recorded as its pIC50 is 5.52

Briefly, pIC50 measured for Nc1ccccc1NC(=O)c1ccc(CC2Cc3ccccc3C2O)cc1 (stereo not shown) [compound 275] : 5.40

Summary for this molecule, Cc1nc(Cc2ccc(C(=O)Nc3ccccc3N)cc2)no1 [compound 284] : pIC50 is 5.52

According to the records, this molecule Nc1ccccc1NC(=O)c1ccc(Cc2noc(-c3cccnc3)n2)cc1 [Cpd 357] displays pIC50 of 5.40

Data point: Nc1ccccc1NC(=O)c1ccc(CSc2ccccn2)cc1 [Cpd 381] ; pIC50 = 5.70

pIC50 reading for Nc1ccccc1NC(=O)c1ccc(CNc2nc3cc(Cl)ccc3o2)cc1 [Cpd 320] : 5.70

Value of measured pIC50 for the entry Cc1nc2ccc(Br)cc2c(=O)n1Cc1ccc(C(=O)Nc2ccccc2N)cc1 [Cpd 342] : 5.52

Measured pIC50, Nc1ccccc1NC(=O)c1ccc(-c2ncc[nH]2)cc1 [Cpd 249] : 5.40
